Values were extracted from paper PMC10487430.

# assay target: rat ASIC1a (rASIC1a) (Rattus norvegicus)
# Construct: homomeric rat ASIC1a expressed in Xenopus laevis oocytes
# Sequence (P55926 1-526): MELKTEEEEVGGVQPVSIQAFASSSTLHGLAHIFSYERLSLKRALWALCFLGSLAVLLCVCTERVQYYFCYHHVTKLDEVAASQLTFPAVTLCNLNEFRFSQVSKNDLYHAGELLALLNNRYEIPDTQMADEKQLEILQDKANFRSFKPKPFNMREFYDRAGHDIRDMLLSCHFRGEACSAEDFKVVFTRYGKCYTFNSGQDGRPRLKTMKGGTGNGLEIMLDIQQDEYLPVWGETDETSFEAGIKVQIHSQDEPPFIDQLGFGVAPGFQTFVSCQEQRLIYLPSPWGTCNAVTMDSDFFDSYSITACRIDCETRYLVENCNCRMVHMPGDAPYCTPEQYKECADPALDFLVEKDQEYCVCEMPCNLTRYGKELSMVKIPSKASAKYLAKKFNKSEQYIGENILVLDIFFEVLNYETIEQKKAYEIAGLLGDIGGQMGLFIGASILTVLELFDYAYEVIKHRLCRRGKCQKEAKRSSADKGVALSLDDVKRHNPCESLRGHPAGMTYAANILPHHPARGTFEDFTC
# protocol details: two-electrode voltage clamp in Xenopus oocytes; inhibition of pH […].0-induced currents
readout type: pIC50
Conceptually, pIC50 converts a concentration in mol/L into minus its log10.

Query: Using the record for O=C(O)C[C@H](C(=O)O)[C@H](OC(=O)[C@@H]1C(C(=O)O[C@@H](C(=O)O)[C@@H](CC(=O)O)C(=O)O)=Cc2cc(O)c(O)cc2[C@H]1c1ccc(O)c(O)c1)C(=O)O , report its pIC50.
Response: 3.70
